IC50 overview
target-system: hERG ion channel (Homo sapiens)
Sequence (Q12809 whole entry): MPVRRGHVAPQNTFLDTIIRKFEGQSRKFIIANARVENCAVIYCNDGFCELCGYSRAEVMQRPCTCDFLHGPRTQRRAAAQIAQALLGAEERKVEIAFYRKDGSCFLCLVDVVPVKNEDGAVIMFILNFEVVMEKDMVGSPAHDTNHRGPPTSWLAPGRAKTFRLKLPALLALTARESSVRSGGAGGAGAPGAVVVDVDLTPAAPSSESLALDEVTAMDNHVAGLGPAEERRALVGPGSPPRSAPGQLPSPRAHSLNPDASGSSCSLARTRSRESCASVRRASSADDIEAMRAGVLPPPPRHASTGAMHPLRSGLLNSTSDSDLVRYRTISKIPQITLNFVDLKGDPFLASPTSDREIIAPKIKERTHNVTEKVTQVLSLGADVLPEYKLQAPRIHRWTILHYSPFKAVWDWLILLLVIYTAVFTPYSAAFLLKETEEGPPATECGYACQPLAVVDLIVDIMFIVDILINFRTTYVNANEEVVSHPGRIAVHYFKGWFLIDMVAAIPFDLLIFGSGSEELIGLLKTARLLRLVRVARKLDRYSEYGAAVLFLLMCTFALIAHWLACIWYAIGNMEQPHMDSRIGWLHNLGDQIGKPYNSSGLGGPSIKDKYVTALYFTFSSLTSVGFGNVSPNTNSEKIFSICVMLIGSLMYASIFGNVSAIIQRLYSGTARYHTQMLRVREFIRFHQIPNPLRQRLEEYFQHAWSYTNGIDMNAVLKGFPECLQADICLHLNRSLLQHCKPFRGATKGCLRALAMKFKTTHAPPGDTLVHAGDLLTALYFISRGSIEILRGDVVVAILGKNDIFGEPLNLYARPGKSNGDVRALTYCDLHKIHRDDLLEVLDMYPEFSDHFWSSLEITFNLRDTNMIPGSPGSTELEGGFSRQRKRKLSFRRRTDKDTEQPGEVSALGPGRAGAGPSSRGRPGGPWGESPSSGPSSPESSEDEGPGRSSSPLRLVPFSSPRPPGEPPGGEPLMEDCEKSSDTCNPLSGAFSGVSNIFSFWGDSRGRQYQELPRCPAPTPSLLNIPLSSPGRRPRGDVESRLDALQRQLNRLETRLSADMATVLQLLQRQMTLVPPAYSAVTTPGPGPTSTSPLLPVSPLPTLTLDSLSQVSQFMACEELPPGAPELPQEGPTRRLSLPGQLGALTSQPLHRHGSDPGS
assay-summary: hERG ion channel inhibition (ScreenPatch assay, IonWorks Quattro)
conditions: CHO cells stably transfected with hERG
measured-attribute: IC50

>>> value_measured("Cc1nocc1C(=O)N1CCN2C(=O)c3ncccc3C[C@]12c1ccc(Cl)cc1 (single isomer, unassigned)")
"130 µM"
>>> value_measured("Cc1nocc1C(=O)N1CCN2C(=O)c3ncccc3CC12c1ccc(Cl)cc1 (centres unmarked)")
"99.2 µM"

----------
assay-summary: Aqueous solubility by laser nephelometry
Format: physicochemical
conditions: pH 6.5, aqueous buffer, kinetic from dmso stock; pH6.5 buffer, 1% DMSO, 30 minute incubation at 25° C., range 1.6-100; read-out: Solubility at pH6.5
measured-attribute: solubility at 30 min

>>> value_measured("Cc1nocc1C(=O)N1CCN2C(=O)c3ncccc3C[C@]12c1ccc(F)cc1 (single isomer, unassigned)")
"> 100 µg/mL"
>>> value_measured("Cc1nocc1C(=O)N1CCN2C(=O)c3nccnc3CC12c1ccc(F)c(F)c1 (stereo not shown)")
"> 100 µg/mL"
>>> value_measured("COc1ccc(C23Cc4cccnc4C(=O)N2CCN3C(=O)c2conc2C)cc1 (stereo not shown)")
"> 100 µg/mL"
>>> value_measured("O=C(c1conc1C(F)(F)F)N1CCN2C(=O)c3ncccc3CC12c1ccc(Cl)cc1 (stereo not shown)")
"50 to 100 µg/mL"
